Biological target: Mast/stem cell growth factor receptor Kit (Homo sapiens)
Sequence (P10721 whole entry): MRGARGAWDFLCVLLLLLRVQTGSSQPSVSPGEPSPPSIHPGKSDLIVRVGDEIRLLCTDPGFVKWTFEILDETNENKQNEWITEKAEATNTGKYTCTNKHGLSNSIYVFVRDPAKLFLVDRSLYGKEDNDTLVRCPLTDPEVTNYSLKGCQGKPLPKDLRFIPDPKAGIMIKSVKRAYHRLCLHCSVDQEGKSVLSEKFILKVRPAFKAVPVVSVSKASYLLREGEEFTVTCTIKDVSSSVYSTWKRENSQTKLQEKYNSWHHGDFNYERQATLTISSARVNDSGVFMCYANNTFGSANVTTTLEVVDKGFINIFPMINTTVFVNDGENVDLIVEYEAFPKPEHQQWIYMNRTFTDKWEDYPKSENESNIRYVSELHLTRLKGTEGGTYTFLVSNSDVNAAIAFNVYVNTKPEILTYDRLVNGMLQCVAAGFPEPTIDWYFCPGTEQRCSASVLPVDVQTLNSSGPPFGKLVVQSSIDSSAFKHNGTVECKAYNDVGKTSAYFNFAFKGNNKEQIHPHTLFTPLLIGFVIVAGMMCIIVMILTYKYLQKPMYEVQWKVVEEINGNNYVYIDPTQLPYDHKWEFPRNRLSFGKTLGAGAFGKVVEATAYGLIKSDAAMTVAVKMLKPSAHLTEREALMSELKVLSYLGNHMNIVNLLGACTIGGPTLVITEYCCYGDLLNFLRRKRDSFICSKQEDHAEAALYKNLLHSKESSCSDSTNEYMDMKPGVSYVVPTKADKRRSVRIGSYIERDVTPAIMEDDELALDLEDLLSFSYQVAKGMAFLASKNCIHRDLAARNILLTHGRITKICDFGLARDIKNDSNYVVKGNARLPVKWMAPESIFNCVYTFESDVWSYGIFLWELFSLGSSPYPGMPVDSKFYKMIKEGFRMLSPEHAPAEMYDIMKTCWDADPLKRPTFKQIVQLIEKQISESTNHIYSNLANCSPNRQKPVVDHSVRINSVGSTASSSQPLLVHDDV
Experiment: Inhibition of c-KIT (unknown origin) at 1 uM by KINOMEscanning assay relative to control; values are per cent of control
MEASURED QUANTITY: residual activity (%)

Previously resolved entries follow.
>>> reported_measurement("COc1ccc(-c2c[nH]c3ncc(-c4cc(OC)c(OC)c(OC)c4)cc23)cc1OC")
19
>>> reported_measurement("COc1ccc(-c2c[nH]c3ncc(-c4ccc(C(=O)N5CCOCC5)c(N)c4)cc23)cc1OC")
51

I = COc1cc(-c2c[nH]c3ncc(-c4cccc(N)c4)cc23)cc(OC)c1OC
II = COc1ccc(-c2cnc3[nH]cc(-c4ccc(OC)c(OC)c4)c3c2)cc1OC
III = COc1ccc(-c2cnc3[nH]cc(-c4ccc(OC)c(OC)c4)c3c2)cc1N
Please list these molecules in decreasing order of residual activity. Record the ranking as a list of labels in the requested order. III, I, II
(III: 37%, I: 9.8%, II: 0.8%)
